target: JNK1 (Homo sapiens); construct: purchased Carna Biosciences; test: JNK1 biochemical assays (one or more of: time resolved fluorescence, Z'-LYTE Cascade, radioactive); settings: one or more of the JNK1 biochemical assays; read-out: Act. Level (JNK1 IC50 activity level)
Sequence (P45983 whole entry): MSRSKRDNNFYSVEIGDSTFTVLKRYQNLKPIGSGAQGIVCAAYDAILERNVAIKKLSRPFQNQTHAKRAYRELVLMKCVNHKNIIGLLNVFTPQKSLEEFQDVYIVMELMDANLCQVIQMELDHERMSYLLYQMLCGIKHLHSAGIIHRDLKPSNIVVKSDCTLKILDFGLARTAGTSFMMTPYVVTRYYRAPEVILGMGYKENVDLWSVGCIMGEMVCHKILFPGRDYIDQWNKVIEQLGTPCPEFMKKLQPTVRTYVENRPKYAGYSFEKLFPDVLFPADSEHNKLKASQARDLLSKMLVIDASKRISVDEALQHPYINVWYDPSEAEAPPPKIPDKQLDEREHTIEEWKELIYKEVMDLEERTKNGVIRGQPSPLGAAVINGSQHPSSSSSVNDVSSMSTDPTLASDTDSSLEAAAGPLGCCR

{"compound": "CC(C)(C)Nc1nc(N[C@H]2CC[C@](C)(O)CC2)ncc1C(N)=O", "IC50": "< 200 nM"}
{"compound": "C[C@H](Nc1ncc(C(N)=O)c(N[C@@H]2CC[C@@H](C)[C@H](O)C2)n1)C1CC1", "IC50": "< 200 nM"}
{"compound": "CCO[C@H]1CC[C@H](Nc2ncc(C(N)=O)c(NC3(C)CCCC3)n2)CC1", "IC50": "< 200 nM"}
{"compound": "C[C@@H]1CC[C@@H](Nc2nc(NC3(C)CCC3)ncc2C(N)=O)C[C@H]1O", "IC50": "< 200 nM"}
{"compound": "C[C@@H]1CC[C@@H](Nc2nc(NC34CC(C)(C3)C4)ncc2C(N)=O)C[C@H]1O", "IC50": "< 200 nM"}
{"compound": "NC(=O)c1cnc(NC2CC2)nc1N[C@@H]1CCC[C@H](O)C1", "IC50": "< 200 nM"}
{"compound": "CC(C)(C)Nc1ncc(C(N)=O)c(N[C@@H]2CCC[C@@H]2CO)n1", "IC50": "< 200 nM"}
{"compound": "CO[C@H]1CC[C@H](Nc2ncc(C(N)=O)c(NC3(C)CCC3)n2)CC1", "IC50": "< 200 nM"}
{"compound": "C[C@@H](Nc1nc(NC23CCC(O)(CC2)CC3)ncc1C(N)=O)C1CC1", "IC50": "< 200 nM"}
{"compound": "CC(C)(Nc1nc(N[C@@H]2CCC[C@H](O)C2)ncc1C(N)=O)C1CC1", "IC50": "< 200 nM"}
{"compound": "NC(=O)c1cnc(N[C@H]2CC[C@H](O)CC2)nc1NCC1CCC1", "IC50": "< 200 nM"}
{"compound": "CCC1(Nc2nc(N[C@H]3CC[C@H](O)CC3)ncc2C(N)=O)CCC1", "IC50": "< 200 nM"}
{"compound": "CO[C@H]1CC[C@H](Nc2ncc(C(N)=O)c(NC3CCC3C)n2)CC1 (stereo partly drawn) [Example 242]", "IC50": "< 200 nM"}
{"compound": "CC(C)(C)Nc1nc(NC2CCOCC2)ncc1C(N)=O", "IC50": "< 200 nM"}
{"compound": "CC1(C)CCC(Nc2nc(NC3CCC3)ncc2C(N)=O)CC1O (stereo not drawn) [Example 429]", "IC50": "< 200 nM"}
{"compound": "CC(C)(C)Nc1ncc(C(N)=O)c(N[C@@H]2CCC[C@](C)(O)C2)n1", "IC50": "< 200 nM"}
{"compound": "CC(C)Nc1nc(N[C@H]2CCC[C@@H](O)CC2)ncc1C(N)=O", "IC50": "< 200 nM"}
{"compound": "CO[C@H]1CC[C@H](Nc2ncc(C(N)=O)c(NC(C)(C)C(C)C)n2)CC1", "IC50": "< 200 nM"}

---

Measured IC50, listed per entry.
biological target: JNK1 (Homo sapiens); construct: purchased Carna Biosciences; assay: JNK1 biochemical assays (one or more of: time resolved fluorescence, Z'-LYTE Cascade, radioactive); settings: Table 3; JNK1 IC50 activity level; read-out: Act. Level

{"compound": "CC(C)(C)Nc1ncc(C#N)c(N[C@@H]2CCCC[C@H](O)C2)n1 [Example C-38]", "IC50": "< 200 nM"}
{"compound": "N#Cc1cnc(NC2CCC(F)(F)CC2)nc1N[C@@H]1CCC[C@H](O)C1 [Example C-3]", "IC50": "200 to 800 nM"}
{"compound": "N#Cc1cnc(N[C@H]2CC[C@H](OCC(F)(F)F)CC2)nc1N[C@@H]1CCCC[C@H](O)C1 [Example C-30]", "IC50": "< 200 nM"}
{"compound": "C[C@@H]1CC[C@@H](Nc2nc(N[C@H]3CC[C@H](O)CC3)ncc2C#N)C[C@H]1O [Example C-48]", "IC50": "< 200 nM"}
{"compound": "CC(C)(C)Nc1ncc(C#N)c(N[C@@H]2CCC[C@H](O)C2)n1 [Example C-7]", "IC50": "200 to 800 nM"}
{"compound": "C[C@@H]1CC[C@@H](Nc2nc(N[C@H]3CC[C@H](OCC(F)(F)F)CC3)ncc2C#N)C[C@H]1O [Example C-49]", "IC50": "< 200 nM"}
{"compound": "CO[C@H]1CC[C@H](Nc2ncc(C#N)c(N[C@@H]3CCC[C@H]3O)n2)CC1 [Example C-18]", "IC50": "< 200 nM"}
{"compound": "N#Cc1cnc(N[C@H]2CC[C@H](OCC(F)(F)F)CC2)nc1N[C@@H]1CCC[C@H](O)C1 [Example C-14]", "IC50": "< 200 nM"}
{"compound": "N#Cc1cnc(NC2CCCCC2)nc1N[C@@H]1CCC[C@H](O)C1 [Example C-10]", "IC50": "< 200 nM"}
{"compound": "CO[C@H]1CC[C@H](Nc2ncc(C#N)c(N[C@H]3CC[C@@H](O)CC3)n2)CC1 [Example C-12]", "IC50": "200 to 800 nM"}
{"compound": "C[C@]1(O)CCC[C@@H](Nc2nc(N[C@H]3CC[C@H](OCC(F)(F)F)CC3)ncc2C#N)C1 [Example C-40]", "IC50": "< 200 nM"}
{"compound": "CO[C@H]1CC[C@H](Nc2ncc(C#N)c(NC(C)C)n2)CC1 [Example C-17]", "IC50": "800 to 1000 nM"}
{"compound": "CN(C)C(=O)C(C)(C)C1CCC(Nc2ncc(C#N)c(N[C@@H]3CCC[C@H](O)C3)n2)CC1 (stereo partly shown) [Example C-35]", "IC50": "200 to 800 nM"}
{"compound": "CCO[C@H]1CC[C@H](Nc2ncc(C#N)c(N[C@@H]3CCC[C@H](O)C3)n2)CC1 [Example C-2]", "IC50": "< 200 nM"}
{"compound": "CN(C)C(=O)C(C)(C)C1CCC(Nc2ncc(C#N)c(N[C@@H]3CCC[C@H](O)C3)n2)CC1 (stereo partly shown) [Example C-34]", "IC50": "< 200 nM"}
{"compound": "CN[C@H]1CC[C@H](Nc2ncc(C#N)c(N[C@@H]3CCC[C@H](O)C3)n2)CC1 [Example C-11]", "IC50": "< 200 nM"}
{"compound": "CO[C@H]1CC[C@H](Nc2ncc(C#N)c(N[C@@H]3CCCC[C@](C)(O)C3)n2)CC1 [Example C-50]", "IC50": "200 to 800 nM"}
{"compound": "N#Cc1cnc(N[C@H]2CC[C@H](O)CC2)nc1N[C@@H]1CCC[C@H](O)C1 [Example C-8]", "IC50": "< 200 nM"}
{"compound": "CO[C@H]1CC[C@H](Nc2ncc(C#N)c(N[C@@H]3CCC[C@@H]3CO)n2)CC1 [Example C-16]", "IC50": "< 200 nM"}
{"compound": "CC(C)(C)Nc1ncc(C#N)c(N[C@@H]2CCC[C@](C)(O)C2)n1 [Example C-59]", "IC50": "200 to 800 nM"}
{"compound": "CN(C)C(=O)[C@H]1CC[C@H](Nc2ncc(C#N)c(N[C@@H]3CCCC[C@H](O)C3)n2)CC1 [Example C-45]", "IC50": "< 200 nM"}
{"compound": "C[C@@H]1CC[C@@H](Nc2nc(NC3CCC3)ncc2C#N)C[C@H]1O [Example C-65]", "IC50": "< 200 nM"}
{"compound": "N#Cc1cnc(N[C@H]2CC[C@H](OC(F)F)CC2)nc1N[C@@H]1CCC[C@H](O)C1 [Example C-6]", "IC50": "< 200 nM"}
{"compound": "CO[C@H]1CC[C@H](Nc2ncc(C#N)c(N[C@@H]3CCC[C@H](O)C3)n2)CC1 [Example C-4]", "IC50": "< 200 nM"}
{"compound": "CC(C)CNc1nc(N[C@H]2CC[C@H](O)CC2)ncc1C#N [Example C-55]", "IC50": "1000 to 10000 nM"}

Cited source for all entries: patent US12129237B2
